# System: Caco-2 cells
# assay.remarks: MTT cytotoxicity assay in Caco-2 cells
# Assay type: cell-based, human
# run.conditions: MTT, 72 h exposure; average ± SD of triplicate
Please provide measured IC50 for the entries that follow.
Entry rule: numbers only, all in µM.

Bench note: what IC50 did COc1ccc(NC(=S)NN=Cc2ccccc2SSCCC(=O)OCC2OC(O)C(O)C(O)C2O)cc1 (stereo not drawn) [Compound M6TC4] show?
10.1

Bench note: what IC50 did COc1ccc(NC(=S)NN=Cc2ccccc2SSCCC(=O)OCC2OC(O)C(O)C(O)C2O)cc1 (stereo not drawn) [Compound G6TC4] show?
6.9

Bench note: what IC50 did `COC(=O)CCSSc1ccccc1C=NNC(=S)Nc1ccc(OC)cc1` show?
8.1
